- Tested on: Cytrobacter freundii GN346
- Test Method Notes: agar-dilution method, minimum inhibitory concentration
- Assay type: cell-based
- Condition Info: Cytrobacter freundii GN346; agar-dilution method; read-out: Minimum Inhibitory Concentration
Each record here notes measured MIC.

| Structure Smiles | MIC |
| --- | --- |
| CO/N=C(\C(=O)N[C@@H]1C(=O)N2C(C(=O)O)=C(/C=C/c3cc(=O)c(O)cn3O)CS[C@H]12)c1csc(N)n1 | 0.1 µg/mL |
| CC(C)(O/N=C(\C(=O)N[C@@H]1C(=O)N2C(C(=O)O)=C(/C=C/c3cc(=O)c(O)cn3O)CS[C@H]12)c1csc(N)n1)C(=O)O | 12.5 µg/mL |
| CO/N=C(\C(=O)N[C@@H]1C(=O)N2C(C(=O)O)=C(/C=C\c3cc(=O)c(O)cn3OC)CS[C@H]12)c1csc(N)n1 | 25 µg/mL |
| Cn1cc(O)c(=O)cc1/C=C/C1=C(C(=O)O)N2C(=O)[C@@H](NC(=O)/C(=N\OC(C)(C)C(=O)O)c3csc(N)n3)[C@H]2SC1 | 3.13 µg/mL |
| CO/N=C(\C(=O)N[C@@H]1C(=O)N2C(C(=O)O)=C(/C=C/c3cc(=O)c(O)cn3C)CS[C@H]12)c1csc(N)n1 | 1.56 µg/mL |
| CC(C)(O/N=C(\C(=O)N[C@@H]1C(=O)N2C(C(=O)O)=C(/C=C/c3cc(=O)c(O)cn3Cc3ccncc3)CS[C@H]12)c1csc(N)n1)C(=O)O | 6.25 µg/mL |

###

- System: Serratia marcescens No. 1
- Test Method Notes: agar-dilution method, minimum inhibitory concentration
- Type: cell-based
- Condition Info: Serratia marcescens No. 1; agar-dilution method; read-out: Minimum Inhibitory Concentration

| Structure Smiles | System Name | Limit Sign | MIC, µg/mL |
| --- | --- | --- | --- |
| CC(C)(O/N=C(\C(=O)N[C@@H]1C(=O)N2C(C(=O)O)=C(/C=C/c3cc(=O)c(O)cn3Cc3ccncc3)CS[C@H]12)c1csc(N)n1)C(=O)O | Serratia marcescens No. 1 | = | 0.1 |
| CC(C)(O/N=C(\C(=O)N[C@@H]1C(=O)N2C(C(=O)O)=C(/C=C/c3cc(=O)c(O)cn3O)CS[C@H]12)c1csc(N)n1)C(=O)O | Serratia marcescens No. 1 | = | 0.05 |
| CO/N=C(\C(=O)N[C@@H]1C(=O)N2C(C(=O)O)=C(/C=C/c3cc(=O)c(O)cn3O)CS[C@H]12)c1csc(N)n1 | Serratia marcescens No. 1 | ≤ | 0.025 |
| CO/N=C(\C(=O)N[C@@H]1C(=O)N2C(C(=O)O)=C(/C=C/c3cc(=O)c(O)cn3C)CS[C@H]12)c1csc(N)n1 | Serratia marcescens No. 1 | ≤ | 0.025 |
| Cn1cc(O)c(=O)cc1/C=C/C1=C(C(=O)O)N2C(=O)[C@@H](NC(=O)/C(=N\OC(C)(C)C(=O)O)c3csc(N)n3)[C@H]2SC1 | Serratia marcescens No. 1 | = | 0.1 |
| CO/N=C(\C(=O)N[C@@H]1C(=O)N2C(C(=O)O)=C(/C=C\c3cc(=O)c(O)cn3OC)CS[C@H]12)c1csc(N)n1 | Serratia marcescens No. 1 | = | 0.2 |
